# Method summary: Solubility of FOL-005 in vehicle excipients and artificial sebum (HPLC)
# Format: physicochemical
# Recorded conditions: PBS buffer, pH 7.4, sodium salt, in PBS buffer pH 7.4, room temperature; read-out: FOL-005 solubility
No end group written: not given here.
Experimental readout: solubility at 2 h

Residue codes: VDTYDGDISVVYGLR [FOL-005]
Result: > 1000 µg/mL

---

# Method summary: Solubility of FOL-005 in vehicle excipients and artificial sebum (HPLC)
# Type: physicochemical
# Recorded conditions: 10% sucrose in water, in 10% Sucrose in water, room temperature; read-out: FOL-005 solubility
No end group written: not given here.

Residue codes: VDTYDGDISVVYGLR [FOL-005]
solubility at 2 h: > 1040 µg/mL

---

# Method summary: Solubility of FOL-005 in vehicle excipients and artificial sebum (HPLC)
# Assay type: physicochemical
# Recorded conditions: 0.5% Cithrol in paraffin oil, sodium salt, in 0.5% Cithrol in paraffin oil, room temperature; read-out: FOL-005 solubility
No end group written: not given here.

Residue codes: VDTYDGDISVVYGLR [FOL-005]
solubility at 2 h, µg/mL: 10

---

# Method summary: Solubility of FOL-005 in vehicle excipients and artificial sebum (HPLC)
# Assay type: physicochemical
# Recorded conditions: 30% sucrose in water, in 30% Sucrose in water, room temperature; read-out: FOL-005 solubility
# Procedure: The testing was performed by charging 0.1% (w/w) of FOL-005 together with 99.90% excipient. […] The mixtures were stirred with magnetic stirrer for 2 hours. If particles of FOL-005 remained, the mixture was centrifuged at 14000 rpm or 10000 rpm (artificial sebum) for 5 minutes and the supernatant was withdrawn for analysis. The concentration of FOL-005 was determined by HPLC analysis in all batches.
No end group written: not given here.
Experimental readout: solubility at 2 h

Residue codes: VDTYDGDISVVYGLR [FOL-005]
Experimental readout: solubility at 2 h
Result: > 1040 µg/mL

---

# Method summary: Solubility of FOL-005 in vehicle excipients and artificial sebum (HPLC)
# Type: physicochemical
# Recorded conditions: 10% mannitol in water, in 10% Mannitol in water, room temperature; read-out: FOL-005 solubility
# Protocol: The testing was performed by charging 0.1% (w/w) of FOL-005 together with 99.90% excipient. […] The mixtures were stirred with magnetic stirrer for 2 hours. If particles of FOL-005 remained, the mixture was centrifuged at 14000 rpm or 10000 rpm (artificial sebum) for 5 minutes and the supernatant was withdrawn for analysis. The concentration of FOL-005 was determined by HPLC analysis in all batches.
No end group written: not given here.

Residue codes: VDTYDGDISVVYGLR [FOL-005]
solubility at 2 h: > 1040 µg/mL

---

# Method summary: Solubility of FOL-005 in vehicle excipients and artificial sebum (HPLC)
# Format: physicochemical
# Recorded conditions: sugar solutions of glucose, mannitol and sucrose, sodium salt, sugar solutions of glucose, mannitol and sucrose, room temperature; read-out: solubility in sugar solutions
No end group written: not given here.

Residue codes: VDTYDGDISVVYGLR [FOL-005]
solubility at 2 h: > 1000 µg/mL

All figures here come from patent US20220273765A1.
